These measurements were taken from patent US20240309087A1.

Entries and their Relative activity (%)
# measured-target: T1, human CD112R on CHO-CD112R cells (human, UniProt Q6DKI7 41-326)
# T1 construct: whole, on cells; also called hCD112R; PVRIG
# T1 sequence (looked up): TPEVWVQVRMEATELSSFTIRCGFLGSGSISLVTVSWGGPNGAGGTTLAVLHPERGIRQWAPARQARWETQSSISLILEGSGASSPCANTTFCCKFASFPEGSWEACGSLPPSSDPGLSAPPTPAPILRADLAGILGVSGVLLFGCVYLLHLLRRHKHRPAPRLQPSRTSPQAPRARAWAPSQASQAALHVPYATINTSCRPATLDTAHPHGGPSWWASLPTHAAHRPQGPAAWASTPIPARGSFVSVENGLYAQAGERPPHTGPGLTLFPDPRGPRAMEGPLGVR
# assay-procedure: FACS on CHO-CD112R cells; EC50 Ref/EC50 antibody
Answer in %, number only, no unit symbol.

Chi-18 (antibody, V domains shown, chimeric) VH: EVQLQQSGAELVKPGASVKISCKASGYTFTDYNMDWVKQSHGKSLEWIGDIHPKYDRTSYNQNFKGKATLTVDKSSRTAYMELRSLTSEDTAVYFCVRINDFDEGFAMDYWGQGTSVTVSS VL: QIVLTQSPAIMSVSPGEKVTMTCSATSSINYMHWYQQKSGTSPKRWIYDTSKLASGVPARFSGSGSGTSYSLTISNMEAEDAATYYCQQWTSNPLTFGAGTKLELK	572

Next:
Q: Return the recorded Relative activity (%) value; entry: Chi-47 (antibody, V domains shown, chimeric) VH: DVKLVESGGGLVKLGGSLKLSCAASGFTFSSYHMSWVRQTPEKRLELVAAINSNVISTYYLDTVKGRFTISRDNAKNTLYLQMSSLKSEDTALYYCARHEDYYGFAMDYWGQGTSVTVSS VL: SIVMTQTPKFLLVSAGDRVTITCKASQSVTNDVAWYQQKPGQSPKLLMYYVSNHYTGVPDRFIGSGYGTDFTFTISTVQAEDLAVYFCQQAYRSPWTFGGGTKLEIK
Result: 600
